The origin of these recorded values is patent US5219741A.

test system: N-acyl-L-proline acylase; experiment: Substrate specificity: hydrolysis of N-acyl amino acids and proline derivatives; format: biochemical, Comamonas testosteroni DSM 5416; conditions: proline derivatives; 30° C., pH 7.0; N-acetyl-L-proline = 100%
Where a SMILES comes first, the peptide text is derived from it. The star is where a group is joined. Cbz = O=C(OCc1ccccc1)*
MEASURED_ENDPOINT: Relative Activity (%)
Quick reminder: number only, in %, skip the unit.

Can you share its Relative Activity (%)? I mean this compound: CCC(=O)N1CCC[C@H]1C(=O)O
29

Query: Relative Activity (%); subject: O=C(O)[C@@H]1CCCN1C(=O)OCc1ccccc1
0

Quick one: Relative Activity (%) of CC(=O)N1CC(O)C[C@H]1C(=O)O (stereo partly drawn) [N-acetyl-L-4-hydroxyproline] ?
10

// lookup Relative Activity (%) for CC(=O)N1CCC[C@@H]1C(=O)O
0

Relative Activity (%) for O=C(NCC(=O)N1CCC[C@H]1C(=O)O)OCc1ccccc1 [N-benzyloxycarbonyl-glycyl-L-proline] (Cbz-Gly-Pro-OH) ?
11

Sample O=C(O)[C@H]1CCCN1C(=O)OCc1ccccc1 — what was its Relative Activity (%)?
0

Need Relative Activity (%) of CCCC(=O)N1CCC[C@H]1C(=O)O , thanks.
14

Quick one: Relative Activity (%) of CCCCCC(=O)N1CCC[C@H]1C(=O)O ?
9

Can you share its Relative Activity (%)? I mean this compound: NC(=O)[C@@H]1CCCN1C(=O)OCc1ccccc1
0

Need Relative Activity (%) of CC(=O)N[C@@H](C)C(=O)N1CCC[C@H]1C(=O)O [Ac--L--Ala--L--Pro--OH] (Ac-Ala-Pro-OH) , thanks.
0

Data request, read-out Relative Activity (%), for O=CN1CCC[C@H]1C(=O)O
18

Form field: reported Relative Activity (%) of CC(=O)N1CCC[C@H]1C(=O)O
100

State the recorded Relative Activity (%) for this entry: NC(=O)[C@@H]1CCCN1
0

Requested read-out: Relative Activity (%). Entry: O=C(O)[C@@H]1CCCN1C(=O)CCl
362

Endpoint output: Relative Activity (%) of NCC(=O)N1CCC[C@H]1C(=O)O [glycyl-L-proline] (H-Gly-Pro-OH) . Value?
4

Give its Relative Activity (%) value. Item: CC(=O)N1CCC[C@H]1C(N)=O [N-acetyl-L-prolineamide]
0

Fill in the blank: the reported Relative Activity (%) of CC(C)(C)OC(=O)N1CCC[C@H]1C(=O)O is ____.
0

Suppose we examine the compound CCCCC(=O)N1CCC[C@H]1C(=O)O ; what Relative Activity (%) value has been reported?
15

###

Please go through the items and note down their Rel. activity (%).
test system: N-acyl-L-proline acylase; assay: Substrate specificity: hydrolysis of N-acyl amino acids and proline derivatives; assay type: biochemical, Comamonas testosteroni DSM 5416; conditions: 20 mM substrate 1.0 ml in 2.0 ml batch, 30° C., pH 7.0; N-acetyl-L-proline = 100%; amino-acid analyzer
Give the quantity in %, number only.

// fetch N-acyl-L-proline acylase Rel. activity (%) for CC(=O)N1CCC[C@H]1C(=O)O [N-acetyl-L-proline]
100

What measured Rel. activity (%) is associated with O=C(CCl)N[C@@H](Cc1ccc(O)cc1)C(=O)O [ClAc--L--Tyr] on N-acyl-L-proline acylase?
1.0

Provide the documented Rel. activity (%) with N-acyl-L-proline acylase as the system for CC(=O)N[C@H](C(=O)O)C(C)C [Ac--L--Val]
0.2

Look up Rel. activity (%) with N-acyl-L-proline acylase for this compound: CC(=O)NC(CO)C(=O)O (racemic) [Ac--D,L--Ser]
0.2

Lookup: Rel. activity (%) / N-acyl-L-proline acylase / O=C(O)[C@@H]1CSCN1C(=O)CCl
462

Form: Entry = CC(=O)N[C@@H](Cc1ccc(O)cc1)C(=O)O [Ac--L--Tyr] | System = N-acyl-L-proline acylase | Rel. activity (%) = ____
0

Notebook entry, N-acyl-L-proline acylase assay: Rel. activity (%) of CC(C)[C@H](NC(=O)CCl)C(=O)O [N-chloroacetyl-L-valine] = ?
14.1

###

test system: N-acyl-L-proline acylase; type: biochemical, Comamonas testosteroni DSM 5416; details: metal cation salt 1 mM; native enzyme; no agent = 100
MEASURED_ENDPOINT: Activity (%)
Only the number, expressed in %, is required.

# input compound: [Ca+2].[Cl-].[Cl-] ; wanted: its Activity (%)
100

Would you mind telling me what Activity (%) value was observed for [Cl][Sn][Cl] ?
72

Can you share its Activity (%)? I mean this compound: [Cl][Hg][Cl]
67

Record request: Activity (%) value, item [Ba+2].[Cl-].[Cl-]
100

Look up Activity (%) for this compound: [Cl][Cd][Cl]
89

# Activity (%) lookup, item [Cl-].[Cl-].[Mg+2]
106

Given the entry O=S(=O)([O-])[O-].[Fe+2] , report its measured Activity (%).
20

Name the recorded Activity (%) for [Cl][Fe]([Cl])[Cl] .
83

Record request: Activity (%) value, item O=S(=O)([O-])[O-].[Cu+2]
61

Returns the measured Activity (%) for the input compound. Input: [Cl][Mn][Cl]
104

Give its Activity (%) value. Item: O=[N+]([O-])[O-].O=[N+]([O-])[O-].[Ni+2]
94

Would you mind telling me what Activity (%) value was observed for [Cl-].[Cl-].[Sr+2] ?
104

Which Activity (%) is reported for this compound? O=S(=O)([O-])[O-].[Zn+2]
77
